Values from PubChem BioAssay AID1159580

Recorded normalized growth values for a group of molecules are listed next.
Assay: chemical genetic growth profiling, strain panel (AID 1159580);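 note: tested at 20 µM; growth read once vehicle control cultures reached saturation at 30 °C; 1 = growth at the plate median or of vehicle wells; lower values mean less growth of the strain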
Conditions: S. cerevisiae deletion strains, growth OD, locus YNL298W, strain CLA4, stronger effect = lower value
The campaign covered roughly 5,500 compounds. About 2,000 (36%) were called active. Roughly 18% stayed inconclusive and do not appear here. Some of the results follow.
Would you mind answering with just the numeric figure?

Worked cases, answers included:
CC1(C)C2CC[C@]3(C)C(C(=O)C=C4[C@@H]5C[C@@](C)(C(=O)O)CC[C@]5(C)CC[C@]43C)[C@@]2(C)CC[C@@H]1O (stereo partly specified) ... 0.942
CCC1(c2ccccc2)C(=O)NCNC1=O ... 1.01
O=c1ccc2cc(O)c(O)cc2o1 ... 0.994

For the molecule CN1C2CC3C[C@H]1C(O3)C2O (stereo partly specified) , what normalized growth is on record? 1.02

For the molecule Cc1ccc(O)cc1 , what normalized growth is on record? 1

For the molecule COc1c(CC=C(C)C)c2c(c3oc(=O)c(-c4ccc(OC(C)=O)cc4)c(OC(C)=O)c13)C=CC(C)(C)O2 , what normalized growth is on record? 1.01

----------
Assay: chemical genetic growth profiling, strain panel (AID 1159580)
Settings: S. cerevisiae deletion strains, growth OD, locus YER111C, strain swi4
Among all 5,500 compounds or so, about 2,000 (36%) were called active. About 18% were inconclusive and are not listed. Cut-off read from the data, not from the text of the source: active = normalized growth mostly below about 0.91 (no sharp cut-off); inconclusive = no clear call, values can overlap the other calls; inactive = mostly above about 0.92. This is one part of the list.
Permitted responses: active, inactive

See these solved cases before continuing.
NC/C=C/C(=O)O ... inactive
CCCCCC(=O)O[C@]1(C(C)=O)CCC2C3CCC4=CC(=O)CC[C@]4(C)C3CC[C@@]21C (stereo partly specified) ... inactive
CC(C)(N=NC(C)(C)C(=N)N)C(=N)N ... inactive
CO[C@H]1C[C@H](O[C@H]2[C@H](C)[C@@H](OC3O[C@H](C)C[C@H](N(C)C)[C@H]3O)[C@@H](C)C[C@]3(CO3)C(=O)[C@H](C)[C@@H](O)[C@@H](C)[C@@H](C)OC(=O)[C@@H]2C)O[C@@H](C)[C@@H]1O (stereo partly specified) ... inactive
CC(C)(CO)C(O)C(=O)NCCCO (stereo unspecified) ... inactive

Please let me know the test result on file for COc1cc(O)c(C(=O)c2ccccc2)cc1O . inactive

Please let me know the test result on file for CC(=O)OCC(CCn1cnc2cnc(N)nc21)COC(C)=O . inactive

Please let me know the test result on file for CC(=O)O[C@@](C)(CCC=C(C)C)C1CC=C(C)CC1 (stereo partly specified) . inactive

Please let me know the test result on file for COc1ccc2c(c1)[C@@]1(C)CCC(=O)C[C@H]1CC2 . inactive

Please let me know the test result on file for CCC1(c2ccc(N)cc2)CCC(=O)NC1=O (stereo unspecified) . inactive

----------
Assay: chemical genetic growth profiling, strain panel (AID 1159580)
Details: S. cerevisiae deletion strains, growth OD, locus YLR418C, strain cdc73, stronger effect = lower value
Hit rate of the full screen: of about 5,500 compounds, about 2,000 (36%) were called active. Another 18% or so got no clear call; they are omitted. This is one part of the list.
# if measured normalized growth < 1: yes  # else: no

See these solved cases before continuing.
CCc1nc(N)nc(N)c1-c1ccc(Cl)cc1 ... yes
COc1ccc2c(c1)OC[C@@H](Cc1ccc(OC)c(OC)c1)[C@H]2O ... no
C[CH2][Hg][S]c1ccccc1C(=O)O ... yes
COc1cc(OC)c2c(c1)O[C@H](c1ccc(OC)c(OC)c1)[C@@H](O)C2 ... no
COc1cc2c(cc1OC)C(=O)C(CC1CCN(Cc3ccccc3)CC1)C2 (stereo unspecified) ... yes

Determine whether this molecule shows normalized growth lower than 1 (ties excluded): O=[N+]([O-])O[C@H]1CO[C@H]2[C@@H]1OC[C@H]2O[N+](=O)[O-] no

Determine whether this molecule shows normalized growth lower than 1 (ties excluded): COc1cc(OC)c2c(c1)OC(c1ccc(OC)c(OC)c1)C(O)C2 (stereo unspecified) no

Determine whether this molecule shows normalized growth lower than 1 (ties excluded): CCC(C(=O)O)c1ccccc1 (stereo unspecified) no

Determine whether this molecule shows normalized growth lower than 1 (ties excluded): Cn1cc[nH]c1=S yes

----------
Experiment: chemical genetic growth profiling, strain panel (AID 1159580);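 note: tested at 20 µM; growth read once vehicle control cultures reached saturation at 30 °C; 1 = growth at the plate median or of vehicle wells; lower values mean less growth of the strain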
Details: S. cerevisiae deletion strains, growth OD, locus YKL068W, stronger effect = lower value
Screen size: about 5,500 compounds; about 2,000 (36%) were called active. Roughly 18% stayed inconclusive and do not appear here. Some of the results follow.
Measure: normalized growth
Would you mind answering with just the numeric figure?

Worked cases, answers included:
COc1cc(OC)c2c(c1)O[C@H](c1ccc(OC)c(OC)c1)[C@@H](O)C2 ... 1.01
COc1ccc2c(c1)OC[C@@H](Cc1ccc(OC)c(OC)c1)[C@H]2O ... 0.973

For the compound C=CC1=C(C(=O)O)N2C(=O)[C@@H](NC(=O)/C(=N/O)c3csc(N)n3)[C@H]2SC1 , what normalized growth is on record? 1

For the compound CC(=O)O[C@H]1C(=O)[C@@]2(C)C([C@H](OC(=O)c3ccccc3)[C@]3(O)C[C@H](OC(=O)[C@H](O)[C@@H](NC(=O)c4ccccc4)c4ccccc4)C(C)=C1C3(C)C)[C@]1(OC(C)=O)CO[C@@H]1C[C@@H]2O (stereo partly drawn) , what normalized growth is on record? 0.781

For the compound COC(=O)C1[C@H]2C[C@H]3c4[nH]c5ccccc5c4CCN3C[C@@H]2CC[C@@H]1O (stereo partly drawn) , what normalized growth is on record? 1.01

For the compound CCCCCC(=O)O[C@]1(C(C)=O)CCC2C3CCC4=CC(=O)CC[C@]4(C)C3CC[C@@]21C (stereo partly drawn) , what normalized growth is on record? 1

For the compound CNc1ccccc1C(=O)N1CCc2c([nH]c3ccccc23)C1=O , what normalized growth is on record? 1

----------
Test: chemical genetic growth profiling, strain panel (AID 1159580);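 note: tested at 20 µM; growth read once vehicle control cultures reached saturation at 30 °C; 1 = growth at the plate median or of vehicle wells; lower values mean less growth of the strain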
Settings: S. cerevisiae deletion strains, growth OD, locus YAL013W, strain DEP1, stronger effect = lower value
Screen size: about 5,500 compounds; about 2,000 (36%) were called active. Inconclusive results (about 18%) are left out. Some of the results follow.
Measure: normalized growth
Would you mind answering with just the numeric figure?

Worked cases, answers included:
O=C(O)c1cc(=O)c2cc(Cl)ccc2[nH]1 ... 0.985
CC1(C)C2CC[C@]3(C)C(C(=O)C=C4[C@H]5C[C@@](C)(C(=O)O)CC[C@]5(C)CC[C@]43C)[C@@]2(C)CC[C@@H]1O (stereo partly drawn) ... 1.04
CC(C(=O)O)c1ccc2c(c1)[nH]c1ccc(Cl)cc12 (stereo not drawn) ... 1.02
CNC1(C)C2CCC(C2)C1(C)C (stereo not drawn) ... 0.982
COC(=O)c1c(C)[nH]c(C)c1C(C)=O ... 1.03

Now look at this one.
For the molecule Cc1ccc(Oc2ccc(C)cc2)cc1 , what normalized growth is on record? 0.993

----------
Assay: chemical genetic growth profiling, strain panel (AID 1159580);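 note: tested at 20 µM; growth read once vehicle control cultures reached saturation at 30 °C; 1 = growth at the plate median or of vehicle wells; lower values mean less growth of the strain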
Conditions: S. cerevisiae deletion strains, growth OD, locus YOR080W, strain dia2, stronger effect = lower value
The whole screen tested about 5,500 compounds, of which about 2,000 (36%) were called active. Another 18% or so got no clear call; they are omitted. The list shows a part of the results.
# if measured normalized growth < 1: yes (1)  # else: no (0)

See these solved cases before continuing.
Cc1cc(C(C)(C)CC(C)(C)C)ccc1OCCOCC[N+](C)(C)Cc1ccccc1 ... yes (1)
CC(=O)O[C@]1(C(C)=O)CCC2C3C[C@H](C)C4=CC(=O)CC[C@]4(C)C3CC[C@@]21C (stereo partly drawn) ... yes (1)
CCCCCC(C)N (stereo not drawn) ... no (0)
S=C=NCc1ccccc1 ... yes (1)
NC[C@@H]1O[C@H](O[C@@H]2[C@@H](CO)OC(O[C@@H]3[C@@H](O)[C@H](N)C[C@H](N)[C@H]3OC3O[C@H](CN)[C@@H](O)[C@H](O)[C@H]3N)[C@@H]2O)[C@H](N)[C@@H](O)[C@@H]1O (stereo partly drawn) ... no (0)

Determine whether this compound shows normalized growth lower than 1 (ties excluded): CCCCCCCCCCCCC[N+](C)(C)Cc1ccccc1 yes (1)

Determine whether this compound shows normalized growth lower than 1 (ties excluded): COc1c2c(c(CC=C(C)C)c3oc(=O)c(-c4ccc(O)cc4)c(O)c13)OC(C)(C)C=C2 yes (1)

Determine whether this compound shows normalized growth lower than 1 (ties excluded): CC(C)N(C(=O)CCl)c1ccccc1 no (0)

Determine whether this compound shows normalized growth lower than 1 (ties excluded): CC(=O)O[C@]1(C(C)=O)CCC2C3C=C(C)C4=CC(=O)CCC4(C)C3CCC21C (stereo partly drawn) yes (1)

Determine whether this compound shows normalized growth lower than 1 (ties excluded): C[N+](C)(C)CC(=O)[O-] yes (1)
